experiment: Blood levels in mice after intramuscular dosing; format: in vivo; details: mouse, im, 20 mg/kg, 20 mg/kg i.m., without BCH-1
VALUE_TYPE: half-life (min)

COMPOUND: C[C@@H](O)[C@H]1C(=O)N2C(C(=O)[O-])=C(SC3CC[S+](C)CC3)C[C@H]12 (stereo partly shown)
VALUE_TYPE: half-life
UNIT_ANNOTATION: min
VAL: 9
